Measured pEC50, listed per entry.
Biological target: T1, human CD36 (on HEK 293 or SCC25 cells) (human, UniProt P16671 2-472)
T1 construct: Overexpressed transiently or stably on HEK 293 cells, or stably on SCC25 cells; also called huCD36
T1 sequence (P16671 2-472 limits assumed): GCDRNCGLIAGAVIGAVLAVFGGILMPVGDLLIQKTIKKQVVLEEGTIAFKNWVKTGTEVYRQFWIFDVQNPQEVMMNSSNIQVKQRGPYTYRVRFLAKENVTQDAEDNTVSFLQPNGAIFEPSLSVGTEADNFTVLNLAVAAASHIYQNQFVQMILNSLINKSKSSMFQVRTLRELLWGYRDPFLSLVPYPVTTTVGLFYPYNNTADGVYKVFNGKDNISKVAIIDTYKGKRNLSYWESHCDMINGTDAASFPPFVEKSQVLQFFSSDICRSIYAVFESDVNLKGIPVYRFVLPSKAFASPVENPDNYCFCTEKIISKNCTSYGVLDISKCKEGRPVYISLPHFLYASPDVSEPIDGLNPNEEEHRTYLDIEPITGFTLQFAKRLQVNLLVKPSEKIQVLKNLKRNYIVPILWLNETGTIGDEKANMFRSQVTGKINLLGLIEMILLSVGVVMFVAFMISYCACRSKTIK
Assay: FACS, HEK 293 cells transiently overexpressing CD36;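 also: antibody binding to transfected cells detected by flow cytometry with a fluorescent anti-human secondary antibody, EC50 from a four-parameter sigmoidal fit of mean fluorescence intensity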
Please report pEC50 as the negative decimal logarithm of the molar concentration, giving only the number.

Dear colleague, I am looking for the recorded pEC50 of the following binder: 29G04 (antibody, human IgG1, V domains shown, Chimeric: mouse variable regions on human IgG1 LALA (L234A/L235A); also called 029G04) VH: QVQLQQSGTELVKPGASVKLSCKASGYTFTSYWMHWVKQRPGQGLEWIGEIDPSDSHTNYNQKFKGKATLTVDKSSSTAYMQLSSLTSEDSAVYYCAPIYYGLDNWGQGTTLTVSS VL: DIVLTQSQKFMSTSVGDRVSVTCKASQNVGTNVAWYQQKPGQSPKALIYSASYRYSGVPDRFTGSGSGTDFTLTISNVQSEDLAEYFCQQYNSYPLTFGAGTKLELK
9.44

# get_value(readout='pEC50', item= 10G04 (antibody, human IgG1, V domains shown, Chimeric: mouse variable regions on human IgG1 LALA (L234A/L235A); also called 010G04) VH: DVQLQESGPELVKPGASVKISCKASGYTFTDYNMHWVKQSHGKSLEWIGYIYPYNGGTGYNQKFKSKATLTVDNSSSTAYMELRSLTSEDSAVYYCARDGGYDVYFDYWGQGTTLTVSS VL: DVVMTQTPLSLPVSLGDQASISCRSSQSLVHSNGNTYLHWYLQKPGQSPKLLIYKVSNRFSGVPDRFSGSGSGTDFTLKISRVEAEDLGVYYCFQGSHVPWTFGGGTKLEIK )
9.11

Field request: pEC50 | item: 38G04 (antibody, human IgG1, V domains shown, Chimeric: chicken variable regions on human IgG1 LALA (L234A/L235A); also called 038G04) VH: AVTLDESGGGLQTPGRALSLVCKASGFTFSSYNMFWVRQAPGKGLEWVAGIDDDGSFTLYGAAVKGRATISRDNGQSTVRLQLNNLRAEDTGTYYCARDSGAVSIDAWGHGTEVIVSS VL: ALTQPSSVSANPGETVKITCSGGDSDYGWYQQKSPGSAPVTVIYQNDKRPSDIPSRFSGSASGSTATFTITGVQAEDEAVYYCGGWDGSYDGAVFGAGTTLTVL
9.46
